This collection of values is drawn from patent US11446265B2.

- Tested on: rat mesenchymal stem cells (rMSC)
- MEASUREMENT PROTOCOL: rMSC viability after hypoxia/serum starvation (LIVE/DEAD)
- Format: cell-based
- CONDITION SUMMARY: 1-hour treatment, compound alone
ATTRIBUTE MEASURED: protection of rMSCs from 48-hour hypoxia induced cell death

Task: Look up protection of rMSCs from 48-hour hypoxia induced cell death with rat mesenchymal stem cells (rMSC) for this compound: O=C(O[C@@H]1Cc2c(O)cc(O)cc2O[C@@H]1c1cc(O)c(O)c(O)c1)c1cc(O)c(O)c(O)c1 [EGCG, epigallocatechin gallate]
Output: not

Task: Now consider "CC(=O)O[C@@H]1C[C@H]2C(C)(C)C(=O)C=C[C@]2(C)[C@H]2CC[C@@]3(C)[C@H](c4ccoc4)OC(=O)[C@H]4O[C@]43[C@@]21C" and answer again.
Output: protect

Task: Now consider CC(C)(C)c1cc(O)ccc1O [tBHQ, tert-Butylhydroquinone] and answer again.
Output: not

Task: Now consider "C[C@@H]1C[C@H]2O[C@@H]2/C=C\C=C\C(=O)Cc2c(Cl)c(O)cc(O)c2C(=O)O1" and answer again.
Output: protect
